Cited source for all entries: patent US10781214B2

Test system: mouse pro-B cell BaF3
Assay: Cell growth, Cell Titer-Glo, 72 h: BaF3
Assay type: cell-based
Conditions: BaF3 cells, 72 h, read-out: GI50
Readout type: GI50 (µM)

# count of solved cases: 2
> print(dat)
                                   compound  measure.unit  measurement
1  C=CC(=O)N1CCC[C@@H](n2nc(-c3ccc(OCc4ccccc4F)c(Cl)c3)c3c(N)ncnc32)C1 [Compound 18]            µM          8.5
2  C=CC(=O)N1CC[C@@H](n2nc(-c3ccc(OCc4cccc(F)c4)c(Cl)c3)c3c(N)ncnc32)C1 [Compound 4]            µM          4.1

P. C=CC(=O)Nc1cc(Cn2nc(-c3ccc(F)c(Cl)c3)c3c(N)ncnc32)ccc1F [Compound 38]
Q. CCC(=O)N1CCC[C@@H](n2nc(-c3ccc(OCc4cccc(F)c4)c(Cl)c3)c3c(N)ncnc32)C1 [Compound 51]
Problem: // pick min by GI50: P , Q Identify your pick by its label.
Solution: P
(P: 4.6 µM, Q: 9.2 µM)
